- ASSAY_METHOD_TEXT: clinical
- EXPERIMENTAL_PARAMETERS: human, in vivo, po, Cmax (maximum concentration in blood)
OBSERVATION_TYPE: Cmax (µg/mL)

smi=CCN(C(=O)CCC(=O)O)c1c(I)cc(I)c(NC)c1I units_label=µg/mL observed_value=114
